tested on: COLO 205 colon; test: NCI tumour cell line growth inhibition, 48 h
Each entry below carries its reported TGI.
readout-label: TGI

molecule	val
Cc1nn(C(=O)c2ccncc2)c2c1C(c1ccc(Cl)cc1)SC(N)=N2 (configuration not stated)	> 10 µM
COc1ccc(Cc2c(N)[nH]c(=O)n(C)c2=O)cc1	> 100 µM
c1cc(CSP234N5CCN2CCN3CCN4CC5)ccc1CSP123N4CCN1CCN2CCN3CC4	> 100 µM
CC(=O)Nc1ccccc1C=C1c2ccccc2-c2ccccc21	> 100 µM
CC(=O)Oc1ccc2c(C)cc(=O)oc2c1	> 100 µM
Cc1cc(NC(=O)NC(=O)c2ccccc2N)ccc1Oc1ncc(Br)cn1	0.108 µM
O=C(O)C12C3C4C1C1C2C3C1(Br)C41OCCO1 (configuration not stated)	> 100 µM
Nc1ccn(CCO)c(=O)n1	> 100 µM
Cc1cccc2c(=O)c3c(O)cc(O)cc3[nH]c12	> 10 µM
CCCCCCCCCCCCCCCCCCNc1ccn(C2OC(CO)C(O)C2O)c(=O)n1 (configuration not stated)	> 100 µM
Cn1c(=O)c(Oc2ccc(F)cc2F)cc2cnc(NC(CO)CO)nc21	> 25 µM
c1ccc(-c2cs[s+]c2)cc1	> 100 µM

====

test system: SR leukemia; assay: NCI tumour cell line growth inhibition, 48 h
readout-label: TGI

molecule	val
CCOC(=O)c1cc(C2CCN(CC(C)CC)C2=S)c(-c2cc(C)no2)[nH]1 (stereo not given)	> 100 µM
c1cc(CCN2CCCCC2)ccn1	> 100 µM
C(=Nc1ccc(-c2cc(-c3ccccc3)nc3ccc4ccccc4c23)cc1)c1ccccc1	> 100 µM
CC(CN1CCN(C)CC1)CN1c2ccccc2Sc2ccc(C(F)(F)F)cc21 (stereo not given)	5.32 µM
CC1=CCC(OC(=O)C(C)(C)CCC(O)(C(=O)OC2(C(C)C)CCC3(C)OC3C2)C(C)C)(C(C)C)CC1 (stereo not given)	1.51 µM
O=C(O)CCSCCCN1C(=O)c2ccccc2C1=O	> 100 µM
COc1ccc(N(C)Sc2ccccc2)cc1	> 100 µM
CC(=O)OC1COC(n2nc(/C=C/c3ccc(Cl)cc3)c(=O)n(/N=C/c3ccccc3)c2=S)C(OC(C)=O)C1OC(C)=O (stereo not given)	> 100 µM
O=c1[nH]c(=O)n(COCCO)c2ccc(Br)cc12	> 100 µM
COc1cc(C(O)c2nc3ccccc3s2)cc(OC)c1OC (stereo not given)	> 100 µM

====

test system: HCT-116 colon; assay: NCI tumour cell line growth inhibition, 48 h
Label Criterion not met if TGI falls below 30 µM; label Criterion met in every other case.

compound	label-value
COP(=O)(OC)C(=NCc1ccccc1)NNc1ccc([N+](=O)[O-])cc1	Criterion met
CN(C)CCNC(=O)c1ccc(C(=O)NCCN(C)C)c2nc3ccccc3cc12	Criterion not met
CC(=O)CCC(=O)C(=[N+]=[N-])S(=O)(=O)c1ccccc1	Criterion met
O=C(CCCCCCSc1nc(-c2ccccc2)cc(-c2ccccc2)n1)NO	Criterion not met
OCC1OC(NCCNCCNC2OC(CO)C(O)C(O)C2O)C(O)C(O)C1O (stereo not drawn)	Criterion met
CCN(CCCN(CC)C(=O)Nc1ccccc1)C(=O)Nc1ccccc1	Criterion met
Cc1cc(NC(=O)NC(=O)c2ccccc2N)ccc1Oc1ncc(Br)cn1	Criterion not met
C[C@]12CC[C@@H]3c4ccc(O)cc4CC[C@H]3[C@@H]1CC[C@@H]2NS(=O)(=O)c1cccc(C(F)(F)F)c1	Criterion not met
Cn1ccnc1C(=O)/C=C/c1ccc(CC(=O)Nc2ccc(S(F)(F)(F)(F)F)cc2)cc1	Criterion not met
Cc1cc(C)nc(NC(=S)Nc2ccccc2Cl)c1	Criterion met
O=c1c2cccc3cccc(c4oc5c6cccc7cccc(c(=O)c5c14)c76)c32	Criterion not met
FC(F)(F)C(C1=NC(C(F)(F)F)(C(F)(F)F)N=C(N2CCOCC2)O1)C(F)(F)F	Criterion met
CC1(C)C2CCC(N)(C2)C1N (stereo not drawn)	Criterion met
O=C1NC(=S)NC(=O)C1C(c1ccc([N+](=O)[O-])cc1)C1C(=O)NC(=S)NC1=O	Criterion met
Cc1nc2ccc(F)cc2c2c1CCO2	Criterion met
CCOC(=O)NC(C(=O)OCC)C(F)(F)F (stereo not drawn)	Criterion met
C=CCOC1OC(CS(=O)(=O)O)C(O)C(O)C1O (stereo not drawn)	Criterion met
CN(C)c1ccc(-c2cc(-c3ccc(Nc4nc(Nc5ccccc5)nc(Nc5ccc(Cl)cc5)n4)cc3)nc(N)n2)cc1	Criterion not met
CCCCNc1c(CN)cnc2cc(Cl)ccc12	Criterion met
Nc1ccc2nc3ccc(N)cc3[n+](-c3ccccc3)c2c1	Criterion met
CCN(CC)CCC1CCCCN1CC(=O)N1c2ccccc2NC(=O)c2ccccc21 (stereo not drawn)	Criterion met

====

Each entry below carries its reported TGI.
test system: NCI-H226 lung; assay: NCI tumour cell line growth inhibition, 48 h
readout-label: TGI

compound	val
CS(=O)(=O)OCCn1cnc2nc(NC(=O)c3ccccc3)[nH]c(=O)c21	> 100 µM
CC(O)(/C=C/c1ccccc1)P(=O)(O)c1ccccc1 (centres undefined)	> 100 µM
Cc1cc(NC(=O)NC(=O)c2ccccc2N)ccc1Oc1ncc(Br)cn1	6.64 µM
OCC1OC(NCCNCCNC2OC(CO)C(O)C(O)C2O)C(O)C(O)C1O (centres undefined)	> 100 µM
COc1cc(C[C@H]2C(=O)OC[C@@H]2Cc2ccc(OC)c(OC)c2)cc(OC)c1	> 100 µM
C[C@]12CC[C@@H]3c4ccc(O)cc4CC[C@H]3[C@@H]1CC[C@@H]2NS(=O)(=O)c1cccc(C(F)(F)F)c1	17.2 µM
O=C(c1ccco1)n1c2ccc(Br)cc2c2nc3ccccc3nc21	> 100 µM
COc1ccc(C(=O)/C=C/c2ccc(OCCSCCCCCCCCCCSCCOc3ccc(/C=C/C(=O)c4ccc(OC)cc4)cc3)cc2)cc1	> 100 µM
O=C(/C=C/c1cccs1)c1ccc(Nc2nc(Nc3ccc(F)cc3)nc(Nc3ccc(F)cc3)n2)cc1	> 100 µM

====

test system: OVCAR-8 ovarian; experiment: NCI tumour cell line growth inhibition, 48 h
Each entry below carries its reported TGI.
readout-label: TGI

compound	val
c1cc(CCN2CCCCC2)ccn1	> 100 µM
C=C1C(=O)OC2C1CC[C@H](C)C13OC(=O)CC1[C@@]23C (stereo partly specified)	> 100 µM
O=C(O)C12C3C4C1C1C2C3C1(Br)C41OCCO1 (stereo unspecified)	> 100 µM
COc1ccc(C2C(=O)C(Cl)N2Nc2nc(C)cc(=O)[nH]2)cc1OC (stereo unspecified)	> 100 µM
c1ccc(C(c2ccccc2)[P+](c2ccccc2)(c2ccccc2)c2ccccc2)cc1	13.5 µM
CCOP1(=O)C=C(Sc2ccc([N+](=O)[O-])cc2[N+](=O)[O-])C(C)(C)O1 (stereo unspecified)	35.4 µM

====

tested on: SR leukemia; experiment: NCI tumour cell line growth inhibition, 48 h; in the data active means GI50 below about 0.43 µM; inactive means the rest
Outcomes: 1 = active, -1 = inactive

compound	label-value
CCc1cccc2c3c(sc12)C(c1ccc(Cl)cc1)C(C#N)=C(N)O3 (stereo not drawn)	1
COc1ccc2c(c1)c(-c1nc(-c3c[nH]c4ncccc34)cs1)cn2CCCCN1CCOCC1	-1
Cc1nc2cnc3cc(F)c(-c4ccc(Oc5ncccn5)cc4Cl)cc3c2n1[C@H]1CCN(C(=O)CO)C[C@@H]1F	-1
C[C@]12CC[C@@H]3c4ccc(O)cc4CC[C@H]3[C@@H]1CC[C@@H]2NS(=O)(=O)c1cccc(C(F)(F)F)c1	-1
C/C(=C\c1ccn(-c2ccc(N)c(F)c2)n1)[C@@H]1C[C@@H]2O[C@]2(C)CCC[C@H](C)[C@H](O)[C@@H](C)C(=O)C(C)(C)[C@@H](O)CC(=O)O1	1
CN1CCN(c2nc(NCCCCNc3ccnc4cc(Cl)ccc34)c3ccccc3n2)CC1	-1
C=C(C)[C@@H]1CC[C@]2(C(=O)NCCNCCNCCN)CC[C@]3(C)[C@H](CC[C@@H]4[C@@]5(C)CC[C@H](O)C(C)(C)[C@@H]5CC[C@]43C)[C@@H]12	-1
O=C1c2ccc3c4c5ccc(c24)C(=O)N1CCCOCCCCOCCCNCc1ccc(cc1)CNCCCOCCCCOCCCN(C3=O)C5=O	-1

====

test system: NCI-H522 lung; experiment: NCI tumour cell line growth inhibition, 48 h; in the data active = GI50 below about 0.43 µM; inactive = the rest
Outcomes: YES (active), NO (inactive)

compound	label-value
O=Cc1cn(Cc2cccc(Cl)c2)c2ccccc12	NO
N#Cc1cccc(C(=O)Nc2cccc(NC(=O)c3cccc(C#N)c3)c2)c1	NO
Cn1ccnc1C(=O)/C=C/c1ccc(CC(=O)Nc2ccc(S(F)(F)(F)(F)F)cc2)cc1	NO
O=C1CC(c2ccc3c(c2)OCO3)Nc2cc3c(cc21)OCO3 (configuration not stated)	NO
NC(=O)c1cc([N+](=O)[O-])c(Cl)c([N+](=O)[O-])c1	NO
CC(CN1CCN(C)CC1)CN1c2ccccc2Sc2ccc(C(F)(F)F)cc21 (configuration not stated)	NO
C=CC1=C[C@@H]2[C@@H]3O[C@]4(CC[C@H](O4)[C@@H](C)C[C@@H](O)C3=O)C[C@H](O)C3=NCC[C@@]32CC1	YES
COc1cc(C(O)c2nc3ccccc3s2)cc(OC)c1OC (configuration not stated)	NO
CC1=CCC(OC(=O)C(C)(C)CCC(O)(C(=O)OC2(C(C)C)CCC3(C)OC3C2)C(C)C)(C(C)C)CC1 (configuration not stated)	YES
COc1ccc(C(=O)/C=C/c2c(C(F)(F)F)nc3sccn23)cc1OC	NO
COc1ccn2c(C(C)=O)cc(C(=O)c3ccc4c(c3)Sc3ccccc3N4)c2c1	YES
Cc1nc2cnc3cc(F)c(-c4ccc(Oc5ncccn5)cc4Cl)cc3c2n1[C@H]1CCN(C(=O)CO)C[C@@H]1F	NO
